Reference for the values: ChEMBL document CHEMBL1135827

# test_system: DNA polymerase alpha catalytic subunit (Homo sapiens, UniProt P09884)
# Sequence (P09884 whole entry): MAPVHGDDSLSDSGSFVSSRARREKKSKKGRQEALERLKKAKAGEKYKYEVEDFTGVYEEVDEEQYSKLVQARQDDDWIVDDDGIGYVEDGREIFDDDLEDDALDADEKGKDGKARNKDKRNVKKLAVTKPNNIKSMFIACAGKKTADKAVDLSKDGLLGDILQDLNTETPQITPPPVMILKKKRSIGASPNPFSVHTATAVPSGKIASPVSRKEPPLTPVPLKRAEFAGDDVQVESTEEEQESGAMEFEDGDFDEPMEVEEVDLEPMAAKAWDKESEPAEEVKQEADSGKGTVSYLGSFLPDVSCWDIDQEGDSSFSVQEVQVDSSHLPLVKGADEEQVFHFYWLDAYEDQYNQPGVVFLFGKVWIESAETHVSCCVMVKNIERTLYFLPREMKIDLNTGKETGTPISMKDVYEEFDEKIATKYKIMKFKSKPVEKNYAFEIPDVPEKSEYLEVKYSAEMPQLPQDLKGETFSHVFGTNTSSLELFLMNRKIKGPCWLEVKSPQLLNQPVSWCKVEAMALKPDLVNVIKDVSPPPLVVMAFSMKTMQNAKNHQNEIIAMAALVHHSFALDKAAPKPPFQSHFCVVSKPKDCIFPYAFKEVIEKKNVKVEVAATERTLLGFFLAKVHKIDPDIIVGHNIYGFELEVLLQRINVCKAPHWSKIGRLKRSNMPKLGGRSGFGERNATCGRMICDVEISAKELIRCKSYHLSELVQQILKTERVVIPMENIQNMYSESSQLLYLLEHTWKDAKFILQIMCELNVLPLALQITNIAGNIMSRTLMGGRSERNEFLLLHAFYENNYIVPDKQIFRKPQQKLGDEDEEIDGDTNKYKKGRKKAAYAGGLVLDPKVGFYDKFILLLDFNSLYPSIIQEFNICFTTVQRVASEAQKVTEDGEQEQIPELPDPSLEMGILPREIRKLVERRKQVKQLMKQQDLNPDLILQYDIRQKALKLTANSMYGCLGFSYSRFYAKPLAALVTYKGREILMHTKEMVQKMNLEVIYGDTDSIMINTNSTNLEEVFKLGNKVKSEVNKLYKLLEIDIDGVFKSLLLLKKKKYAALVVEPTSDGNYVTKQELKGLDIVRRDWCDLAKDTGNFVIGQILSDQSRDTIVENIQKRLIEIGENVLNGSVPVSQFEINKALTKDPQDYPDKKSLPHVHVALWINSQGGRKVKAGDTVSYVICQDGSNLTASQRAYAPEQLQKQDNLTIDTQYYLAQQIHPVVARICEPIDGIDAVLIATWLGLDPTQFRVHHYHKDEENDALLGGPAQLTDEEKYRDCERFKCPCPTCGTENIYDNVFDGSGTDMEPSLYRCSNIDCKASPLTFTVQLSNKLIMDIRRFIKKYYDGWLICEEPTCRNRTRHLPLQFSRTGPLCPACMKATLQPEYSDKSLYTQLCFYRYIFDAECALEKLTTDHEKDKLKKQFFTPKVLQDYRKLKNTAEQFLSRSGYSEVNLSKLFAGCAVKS
# assay_procedure: Ability to inhibit the incorporation of dATP into DNA by DNA polymerase alpha
outcome_measure: Ki (µM)
Quick note: give the figure in µM, leave out the unit.

input: Name the recorded Ki for CC(C)(C)C(=O)OCOP(=O)(OCOC(=O)C(C)(C)C)OC[C@H]1O[C@@H](n2nnc3c(N)ncnc32)C[C@H]1O .
output: 156
